Data origin: patent US20150368338A1

molecular target: T1, human IFN-ω (human, UniProt P05000 24-195); assay: ProteOn SPR, cell supernatant;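 also: each binding measurement used just a single antigen concentration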
T1 construct: Recombinant, HEK293; also called interferon omega
pKd: −log10 of the molar value.
Measured pKd accompanies every entry in the list below.
measurement.label: pKd

{"columns": ["binder", "measurement.label", "assay.result"],
 "data": [
  ["IFWM3381 (antibody, IgG1, V domains shown, mAb; IgG1/kappa said of the parent and of selected mAbs; also called IFWB3116) VH: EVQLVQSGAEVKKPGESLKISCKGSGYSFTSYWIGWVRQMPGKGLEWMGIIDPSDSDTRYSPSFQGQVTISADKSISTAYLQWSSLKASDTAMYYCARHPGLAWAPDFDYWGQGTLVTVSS VL: DIQMTQSPSSLSASVGDRVTITCRASQSIGSFLNWYQQKPGKAPKLLIYFASSLQSGVPSRFSGSGSGTDFTLTISSLQPEDFATYYCQQSYSIPITFGQGTKVEIK", "pKd", 10.35],
  ["IFWM3392 (antibody, IgG1, V domains shown, mAb; IgG1/kappa said of the parent and of selected mAbs; also called IFWB3127) VH: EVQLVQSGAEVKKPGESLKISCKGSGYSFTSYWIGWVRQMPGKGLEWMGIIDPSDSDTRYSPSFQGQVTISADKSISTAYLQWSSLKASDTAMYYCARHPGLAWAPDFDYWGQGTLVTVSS VL: DIQMTQSPSSLSASVGDRVTITCRASQSIDRALNWYQQKPGKAPKLLIYFASSLQSGVPSRFSGSGSGTDFTLTISSLQPEDFATYYCQQSFDFPLTFGQGTKVEIK", "pKd", 10.64],
  ["IFWM3394 (antibody, IgG1, V domains shown, mAb; IgG1/kappa said of the parent and of selected mAbs; also called IFWB3129) VH: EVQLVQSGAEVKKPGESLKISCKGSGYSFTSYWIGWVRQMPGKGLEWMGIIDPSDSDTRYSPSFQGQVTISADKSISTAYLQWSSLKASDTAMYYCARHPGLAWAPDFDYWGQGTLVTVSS VL: DIQMTQSPSSLSASVGDRVTITCRASQSINEFLNWYQQKPGKAPKLLIYFASSLQSGVPSRFSGSGSGTDFTLTISSLQPEDFATYYCQQSYSTPLTFGQGTKVEIK", "pKd", 10.35]
]}
